Listed here: items and their measured pKi.
Target: CRBN-DDB1 (Homo sapiens (Human))
Sequence (Q96SW2 whole entry): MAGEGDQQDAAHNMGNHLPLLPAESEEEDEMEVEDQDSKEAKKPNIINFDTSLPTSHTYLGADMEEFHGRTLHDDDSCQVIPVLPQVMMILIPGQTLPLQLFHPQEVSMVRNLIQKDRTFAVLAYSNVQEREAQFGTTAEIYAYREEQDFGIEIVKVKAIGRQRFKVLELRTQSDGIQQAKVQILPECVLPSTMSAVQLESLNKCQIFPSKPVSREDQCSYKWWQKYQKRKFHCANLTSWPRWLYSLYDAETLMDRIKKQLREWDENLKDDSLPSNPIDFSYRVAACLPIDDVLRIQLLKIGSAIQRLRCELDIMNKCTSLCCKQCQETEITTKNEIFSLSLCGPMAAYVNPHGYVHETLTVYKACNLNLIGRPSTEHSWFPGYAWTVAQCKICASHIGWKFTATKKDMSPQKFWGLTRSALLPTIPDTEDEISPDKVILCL
Sequence (Q16531 whole entry partner): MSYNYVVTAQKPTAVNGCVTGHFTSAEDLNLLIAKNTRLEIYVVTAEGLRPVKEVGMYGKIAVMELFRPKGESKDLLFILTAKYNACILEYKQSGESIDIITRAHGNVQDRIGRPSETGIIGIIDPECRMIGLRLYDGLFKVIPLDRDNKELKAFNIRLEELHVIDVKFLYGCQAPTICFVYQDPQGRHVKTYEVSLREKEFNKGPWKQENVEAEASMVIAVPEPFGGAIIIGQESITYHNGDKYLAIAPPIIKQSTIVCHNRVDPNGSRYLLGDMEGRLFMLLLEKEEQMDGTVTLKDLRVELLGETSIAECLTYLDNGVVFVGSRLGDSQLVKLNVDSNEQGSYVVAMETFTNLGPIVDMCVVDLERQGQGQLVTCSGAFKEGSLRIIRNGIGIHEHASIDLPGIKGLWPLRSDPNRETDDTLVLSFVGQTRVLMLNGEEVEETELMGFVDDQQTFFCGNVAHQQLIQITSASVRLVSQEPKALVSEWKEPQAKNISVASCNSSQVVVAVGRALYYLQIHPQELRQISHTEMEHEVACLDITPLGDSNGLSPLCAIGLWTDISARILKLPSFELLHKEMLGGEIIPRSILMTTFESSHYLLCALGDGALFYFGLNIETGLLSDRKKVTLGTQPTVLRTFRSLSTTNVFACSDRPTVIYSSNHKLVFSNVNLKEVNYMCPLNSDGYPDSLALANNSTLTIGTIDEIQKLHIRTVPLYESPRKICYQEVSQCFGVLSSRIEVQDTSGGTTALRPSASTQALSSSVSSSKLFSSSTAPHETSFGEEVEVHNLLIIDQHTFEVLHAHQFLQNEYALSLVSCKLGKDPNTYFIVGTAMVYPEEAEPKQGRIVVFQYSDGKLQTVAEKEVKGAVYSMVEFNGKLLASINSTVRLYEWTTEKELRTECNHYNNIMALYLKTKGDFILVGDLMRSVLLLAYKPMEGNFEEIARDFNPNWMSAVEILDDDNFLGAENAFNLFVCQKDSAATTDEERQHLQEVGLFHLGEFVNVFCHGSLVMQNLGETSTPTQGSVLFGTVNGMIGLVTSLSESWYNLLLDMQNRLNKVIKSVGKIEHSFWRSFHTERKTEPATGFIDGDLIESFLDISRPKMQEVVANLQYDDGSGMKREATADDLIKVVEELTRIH
pKi: −log10 of the molar value.

MOLECULE	pKi
CN(C(=O)N1CCC(OC(=O)NC2CN(c3cc(F)c(C4CCC(=O)NC4=O)c(F)c3)C2)CC1)C1CC1 (stereo not drawn) [Compound 88]	≥ 7.00
CC1(Nc2nnc(C3CC4(CCC4)C3)o2)CN(c2cc(F)c(C3CCC(=O)NC3=O)c(F)c2)C1 (stereo not drawn) [Compound 101]	≥ 7.00

What value of pKi has been reported for the following molecule? O=C1CCC(c2c(F)cc(N3CC(NC(=O)OC4CN(C(=O)c5ccc(Cl)cc5)C4)C3)cc2F)C(=O)N1 (stereo not drawn) [Compound 26]
≥ 7.00

====

Listed here: items and their measured Dmax.
Target: CDK2 (Homo sapiens (Human), UniProt P24941)
Assay: CDK2 NanoBiT assay (HiBiT-tagged CDK2 degradation)
Type: cell-based
Conditions: HEK293, HEK293 clonal line, C-terminal HiBiT tag on CDK2, LgBiT; 24 hours

Some compounds with recorded Dmax:
COMPOUND	Dmax
CN(C(=O)N1CC(OC(=S)NC2CN(c3cc(F)c(C4CCC(=O)NC4=O)c(F)c3)C2)C1)C1CC1 (stereo not drawn)	> 80%
COc1c(N2CC(C)(NC(=O)OCC3CC4(CCC4)C3)C2)ccc(C2CCC(=O)NC2=O)c1F (stereo not drawn)	50 to 80%
COc1c(N2CC(NC(=O)OCC3CC4(CCC4)C3)C2)ccc(C2CCC(=O)NC2=O)c1F (stereo not drawn)	> 80%
COc1c(N2CC(C)(Nc3nnc(C4CC5(CCC5)C4)o3)C2)ccc(C2CCC(=O)NC2=O)c1F (stereo not drawn)	10 to 50%
O=C1CCC(c2c(F)cc(N3CC(NC(=O)OCCc4ccccc4)C3)cc2F)C(=O)N1 (stereo not drawn)	50 to 80%
O=C1CCC(c2c(F)cc(N3CC(NC(=O)OC4CN(C(=O)c5ccc(Cl)cc5)C4)C3)cc2F)C(=O)N1 (stereo not drawn)	50 to 80%
O=C1CCC(c2c(F)cc(N3CC(Nc4nnc(Cc5ccccc5)o4)C3)cc2F)C(=O)N1 (stereo not drawn)	50 to 80%
O=C1CCC(c2c(F)cc(N3CC(Nc4ncn(C5CC6(CCC6)C5)n4)C3)cc2F)C(=O)N1 (stereo not drawn)	50 to 80%

What value of Dmax has been reported for the following compound? CN(C(=O)C12CC(OC(=O)NC3CN(c4cc(F)c(C5CCC(=O)NC5=O)c(F)c4)C3)(C1)C2)c1ccc(Cl)cc1 (stereo not drawn)
50 to 80%

====

pKi: −log10 of the molar value.
Measurement record for CRBN-DDB1 (Homo sapiens (Human)); quantity recorded: pKi.

Some compounds with recorded pKi:
COMPOUND	pKi
CC(C)(C)[Si](C)(C)O[C@H]1C[C@H](OC(=O)NC2CN(c3cc(F)c(C4CCC(=O)NC4=O)c(F)c3)C2)C1 (some centres unmarked)	≥ 7.00
COc1ccc(N(C)C(=O)N2CC(OC(=O)NC3CN(c4cc(F)c(C5CCC(=O)NC5=O)c(F)c4)C3)C2)cc1 (centres unmarked)	≥ 7.00

What value of pKi has been reported for the following compound? C[C@H]1CC[C@H](COC(=O)NC2CN(c3cc(F)c(C4CCC(=O)NC4=O)c(F)c3)C2)CC1 (some centres unmarked)
≥ 7.00

What value of pKi has been reported for the following compound? CN(C)C(=O)N1CC(OC(=O)NC2(C)CN(c3cc(F)c(C4CCC(=O)NC4=O)c(F)c3)C2)C1 (centres unmarked)
≥ 7.00

What value of pKi has been reported for the following compound? C[C@@H]1[C@@H](Nc2nnc(C3CC4(CCC4)C3)o2)CN1c1cc(F)c(C2CCC(=O)NC2=O)c(F)c1 (some centres unmarked)
≥ 7.00

What value of pKi has been reported for the following compound? Cc1cccc(-c2nnc(NC3CN(c4cc(F)c(C5CCC(=O)NC5=O)c(F)c4)C3)o2)c1 (centres unmarked)
6.00 to 7.00

What value of pKi has been reported for the following compound? CN(C(=O)N1CC(OC(=O)NC2CN(c3cc(F)c(C4CCC(=O)NC4=O)c(F)c3)C2)C1)c1cccc(Cl)c1 (centres unmarked)
≥ 7.00
